Reported IC50 values, RAC-alpha serine/threonine-protein kinase (Homo sapiens, UniProt P31749).
Answers are plain numbers, in nM.

- compound: "CC(=O)NCC[C@@H]1C[C@@H](c2ccc(F)c(F)c2)[C@H](NC(=O)c2cc(-c3c(Cl)cnn3C)c(Cl)o2)CN1"
  unitDescriptor: "nM"
  endpointValue: 2.49
- compound: "Cn1ncc(Cl)c1-c1cc(C(=O)N[C@@H]2CNCC[C@@H]2c2ccc(F)c(F)c2)oc1Cl"
  unitDescriptor: "nM"
  endpointValue: 2.5
- compound: "CNC(=O)C[C@@H]1C[C@@H](c2ccc(F)c(F)c2)[C@H](NC(=O)c2cc(-c3c(Cl)cnn3C)c(Cl)o2)CN1"
  unitDescriptor: "nM"
  endpointValue: 1.37
- compound: "Cn1cc(-c2c(Br)cnn2C)cc1C(=O)N[C@@H]1CNCC[C@H]1c1ccc(Cl)cc1"
  unitDescriptor: "nM"
  endpointValue: 255
- compound: "Cn1ncc(Cl)c1-c1cc(C(=O)N[C@@H]2CN[C@H](CCO)C[C@H]2c2ccc(F)c(F)c2)oc1Cl"
  unitDescriptor: "nM"
  endpointValue: 0.98

State the recorded IC50 for every item in the following list.
1. Cn1ncc(Br)c1-c1ccc(C(=O)N[C@@H]2CNCC[C@H]2c2ccc(Cl)cc2)o1
2. Cn1nccc1-c1coc(C(=O)N[C@@H]2CNCC[C@H]2c2ccc(Cl)cc2)c1
3. Cn1ncc(Cl)c1-c1coc(C(=O)N[C@@H]2CNCC[C@H]2c2ccc(F)c(F)c2)c1
4. Cn1ncc(Cl)c1-c1cc(C(=O)N[C@@H]2CNCC[C@H]2c2ccc(F)c(F)c2)oc1Cl.O=C(O)C(O)C(O)C(=O)O
5. Cn1ncc(Cl)c1-c1coc(C(=O)NC2CNCC2c2ccc(F)c(F)c2)c1 (racemic)
6. Cn1ncc(Br)c1-c1ccc(C(=O)N[C@@H]2CNCC[C@H]2c2cccc(F)c2)nc1
7. Cn1nccc1-c1oc(C(=O)N[C@@H]2CNCC[C@H]2c2ccc(Cl)cc2)cc1Br
8. Cn1ncc(Cl)c1-c1cc(C(=O)NC2CNCCC2c2ccccc2)oc1Cl (configuration not stated)

1: 31.2; 2: 29.4; 3: 5.1; 4: 3; 5: 1570; 6: 182; 7: 162; 8: 17.6

State the recorded IC50 for every item in the following list.
1. Cn1ncc(Cl)c1-c1cc(C(=O)N[C@@H]2CN[C@H](CCN3CCCC3)C[C@H]2c2ccc(Cl)c(Cl)c2)oc1Cl
2. Cn1ncc(Cl)c1-c1cc(C(=O)N[C@@H]2CN[C@H](CCNS(C)(=O)=O)C[C@H]2c2ccc(F)c(F)c2)oc1Cl
3. Cn1ncc(Cl)c1-c1cc(C(=O)N[C@@H]2CNCC[C@H]2c2ccc(Cl)cc2)n(C)c1Cl
4. Cn1ncc(Cl)c1-c1cc(C(=O)N[C@@H]2CNCC[C@H]2c2cccc(F)c2)sc1Cl

1. 6.41
2. 3.29
3. 149
4. 102

---

Experiment: Tmax in Sprague-Dawley rat at 25 mg/kg, ig measured up to 24 hrs by LC-MS/MS analysis
Assay type: ADME, organism-based
Conditions: in vivo, po
propertyName: Tmax (h)
Answers are plain numbers, in h.

Query (compound): Cn1ncc(Cl)c1-c1cc(C(=O)N[C@@H]2CN[C@H](CCO)C[C@H]2c2ccc(F)c(F)c2)oc1Cl ; field requested: Tmax 1.1

---

Assay: Toxicity in po dosed BALB/c nude mouse xenografted with human MM1S cells assessed as maximum tolerated dose administered once daily for 22 days
Format: organism-based
Details: in vivo
propertyName: MTD at 528 h

Query (molecule): Cn1ncc(Cl)c1-c1cc(C(=O)N[C@@H]2CNCC[C@H]2c2ccc(F)c(F)c2)oc1Cl.O=C(O)C(O)C(O)C(=O)O ; field requested: MTD at 528 h < 10 mg/kg

---

Experiment: Cmax in ICR mouse at 20 mg/kg, po measured up to 48 hrs by LC-MS/MS analysis
Type: ADME, organism-based
Set-up: dose 20 mg/kg, route oral
Details: in vivo
propertyName: Cmax (µg/mL)
Numbers only, in µg/mL.

Query (compound): Cn1ncc(Cl)c1-c1cc(C(=O)N[C@@H]2CNCC[C@H]2c2ccc(F)c(F)c2)oc1Cl.O=C(O)C(O)C(O)C(=O)O ; field requested: Cmax 0.398

---

Test: AUC (0 to infinity) in ICR mouse at 20 mg/kg, po measured up to 48 hrs by LC-MS/MS analysis
Format: ADME, organism-based
Parameters: dose 20 mg/kg, time infinity, route oral
Conditions: in vivo
propertyName: AUC (ng·h/mL)
Answers are plain numbers, in ng·h/mL.

Query (compound): Cn1ncc(Cl)c1-c1cc(C(=O)N[C@@H]2CNCC[C@H]2c2ccc(F)c(F)c2)oc1Cl.O=C(O)C(O)C(O)C(=O)O ; field requested: AUC 6670

---

Assay: MRT (0 to infinity) in Sprague-Dawley rat at 25 mg/kg, ig measured up to 24 hrs by LC-MS/MS analysis
Format: ADME, organism-based
Details: in vivo, po
propertyName: MRT inf (h)
Numbers only, in h.

Query (molecule): Cn1ncc(Cl)c1-c1cc(C(=O)N[C@@H]2CN[C@H](CCO)C[C@H]2c2ccc(F)c(F)c2)oc1Cl ; field requested: MRT inf 12.3

---

Assay: Toxicity in ICR mouse assessed as maximum tolerated dose, ig administered once daily for 7 days
Conditions: in vivo, po
propertyName: MTD at 168 h

Query (compound): CNC(=O)C[C@@H]1C[C@@H](c2ccc(F)c(F)c2)[C@H](NC(=O)c2cc(-c3c(Cl)cnn3C)c(Cl)o2)CN1 ; field requested: MTD at 168 h ≥ 80 mg/kg

---

Tested on: HCT-116
Test: cells
Conditions: Homo sapiens, HCT-116, 72 h
The label Fulfilled is reserved for IC50 strictly under 2000 nM; Not fulfilled covers values equal to or above it.

Worked examples follow.
- compound: "Cn1ncc(Cl)c1-c1cc(C(=O)N[C@@H]2CN[C@H](CCN3CCCCC3)C[C@H]2c2ccc(Cl)c(Cl)c2)oc1Cl"
  discreteLabel: "Fulfilled"
- compound: "Cn1ncc(Cl)c1-c1cc(C(=O)N[C@@H]2CN[C@H](CC(=O)O)C[C@H]2c2ccc(Cl)c(Cl)c2)oc1Cl"
  discreteLabel: "Not fulfilled"
- compound: "Cn1ncc(Cl)c1-c1coc(C(=O)N[C@@H]2CNCC[C@H]2c2ccc(F)c(F)c2)c1"
  discreteLabel: "Fulfilled"

Then there is this compound:
Strictly below 2000 nM: is that where IC50 of Cn1ncc(Br)c1-c1ccc(C(=O)N[C@@H]2CNCC[C@H]2c2cccc(F)c2)nc1 sits? Not fulfilled

---

Assay: Clearance in ICR mouse at 40 mg/kg, ig measured up to 48 hrs by LC-MS/MS analysis
Format: ADME, organism-based
Conditions: in vivo, po
propertyName: CL/F (mL/min/kg)
Numbers only, in mL/min/kg.

Query (compound): CNC(=O)C[C@@H]1C[C@@H](c2ccc(F)c(F)c2)[C@H](NC(=O)c2cc(-c3c(Cl)cnn3C)c(Cl)o2)CN1 ; field requested: CL/F 31.7

---

Biological target: Serine/threonine-protein kinase Sgk1 (Homo sapiens)
Sequence (O00141 whole entry): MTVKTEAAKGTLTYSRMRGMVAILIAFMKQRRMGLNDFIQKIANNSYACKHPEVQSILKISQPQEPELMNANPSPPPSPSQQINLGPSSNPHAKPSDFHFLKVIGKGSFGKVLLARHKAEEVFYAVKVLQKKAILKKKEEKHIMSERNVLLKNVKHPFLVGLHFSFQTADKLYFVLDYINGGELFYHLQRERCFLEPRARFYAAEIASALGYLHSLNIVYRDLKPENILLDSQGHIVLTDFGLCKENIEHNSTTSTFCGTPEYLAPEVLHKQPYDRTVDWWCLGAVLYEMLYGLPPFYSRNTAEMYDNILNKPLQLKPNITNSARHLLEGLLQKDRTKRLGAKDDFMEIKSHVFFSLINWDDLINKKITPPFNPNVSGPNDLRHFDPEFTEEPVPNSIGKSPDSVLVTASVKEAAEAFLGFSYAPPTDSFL
So I've got a bunch of compounds here, and I need their pIC50 values.
One number for each entry, as −log10 of the molar value.

Sample answers from the record:
- smi: "Cn1ncc(Cl)c1-c1cc(C(=O)N[C@@H]2CN[C@H](CCO)C[C@H]2c2ccc(F)c(F)c2)oc1Cl"
  targetSystem: "Serine/threonine-protein kinase Sgk1 (Homo sapiens)"
  pIC50: 6.99
- smi: "Cn1ncc(Cl)c1-c1cc(C(=O)N[C@@H]2CNCC[C@H]2c2ccc(F)c(F)c2)oc1Cl.O=C(O)C(O)C(O)C(=O)O"
  targetSystem: "Serine/threonine-protein kinase Sgk1 (Homo sapiens)"
  pIC50: 7.23
- smi: "CNC(=O)C[C@@H]1C[C@@H](c2ccc(F)c(F)c2)[C@H](NC(=O)c2cc(-c3c(Cl)cnn3C)c(Cl)o2)CN1"
  targetSystem: "Serine/threonine-protein kinase Sgk1 (Homo sapiens)"
  pIC50: 6.84

Next compound, please.
Query (compound): Cn1ncc(Cl)c1-c1cc(C(=O)N[C@H](CN)Cc2ccc(F)c(F)c2)oc1Cl ; field requested: pIC50 6.68

These measurements were taken from ChEMBL document CHEMBL4406807.
